- Test system: HPPD polypeptides
- METHOD NOTES: coupled HPPD activity assay: turnover and residual turnover in crude extracts
- Type: biochemical, Pseudomonas fluorescens
- ASSAY SETUP: 100 μM Cmpd. 1; signal change with inhibitor divided by signal change without inhibitor
OBSERVED PROPERTY: Residual turnover [%] (%)
Express the result in % but write the number alone.

32 (protein, mutant HPPD polypeptide) MADLYENPMGLMGFEFIEFASPTPGTLEPIFEIMGFTKVATHRSKNVHLYRQGEINLILNNEPNSIASYFAAEHGPSVCGMAFRVKDSQKAYNRALELGAQPIHIDTGPMELNLPAIKGIGGAPLYLIDRFGEGSSIYDIDFVYLEGVERNPVGAGLKVIDHLTHNVYRGRMVYWANFYEKLFNFREARYFDIKGEYTGLTSKAMSAPDGMIRIPLNEESSKGAGQIEEFLMQFNGEGIQHVAFLTDDLVKTWDALKKIGMRFMTAPPDTYYEMLEGRLPDHGEPVDQLQARGILLDGSSVEGDKRLLLQIFSETLMGPVFFEFIQRKGDDGFGPHSFKVLFESVERDQVRRGVLTAD = 39

Let us move to another entry and its Residual turnover [%].
Output Residual turnover [%] of 64 (protein, mutant HPPD polypeptide) MADLYENPMGLMGFEFIEFASPTPGTLEPIFEIMGFTKVATHRSKNVHLYRQGEINLILNNEPNSIASYFAAEHGPSVCGMAFRVKDSQKAYNRALELGAQPIHIDTGPMELNLPAIKGIGGAPLYLIDRFGEGSSIYDIDFVYLEGVERNPVGAGLKVIDHLTHNVYRGRMVYWANFYEKLFNFREARYFDIKGEYTGLTSKAMSAPDGMIRIPLNEESSKGAGQIEEFLMQFNGEGIQHVAFLTDDLVKTWDALKKIGMRFMTAPADSYYEMLEGRLPDHGEPVDQLQARGILLDGSSVEGDKRLLLQIFSETLMGPVFFEFIQRKGDDGFGPHSFKVLFEQMERDQVRRGVLTAD
47
